system: CYP2D6 (Homo sapiens, UniProt P10635)
Sequence (P10635 whole entry): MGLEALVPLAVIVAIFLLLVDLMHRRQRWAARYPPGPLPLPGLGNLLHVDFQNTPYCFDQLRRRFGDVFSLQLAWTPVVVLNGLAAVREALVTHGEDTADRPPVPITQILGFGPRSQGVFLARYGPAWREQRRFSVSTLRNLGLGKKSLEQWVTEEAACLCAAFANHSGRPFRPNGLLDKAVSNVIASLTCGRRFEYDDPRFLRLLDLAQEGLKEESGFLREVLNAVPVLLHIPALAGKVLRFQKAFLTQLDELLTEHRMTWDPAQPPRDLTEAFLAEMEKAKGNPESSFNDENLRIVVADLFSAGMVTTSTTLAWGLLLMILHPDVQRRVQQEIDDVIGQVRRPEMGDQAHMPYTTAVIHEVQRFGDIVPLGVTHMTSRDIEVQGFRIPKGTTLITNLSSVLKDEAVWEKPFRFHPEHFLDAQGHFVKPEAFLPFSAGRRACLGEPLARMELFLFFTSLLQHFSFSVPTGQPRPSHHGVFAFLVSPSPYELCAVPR
assay.overview: CYP inhibition screening, CYP2D6
Format: in vitro ADME
test.conditions: test concentration 3 μM
readout.type: CYP inhibition, CYP2D6 (%)
Give bare numbers, in %.

// CYP inhibition, CYP2D6 value for CCN(CC)c1ccc(CN2CCc3nc(C)[nH]c(=O)c3C2)c(OC)c1 [Compound 64] : 34.6

// CYP inhibition, CYP2D6 value for COc1ccc(N2CCN(C(c3ccc(N(C)C)cc3)c3nnnn3C(C)(C)C)CC2)cc1 (centres unmarked) [Compound 31] : 9.9

// CYP inhibition, CYP2D6 value for Nc1ccc(N2CCOCC2)c2nonc12 [Compound 11] : 7.8

// CYP inhibition, CYP2D6 value for Cc1cccc(NCc2ccc(O)c3ncccc23)c1C [Compound 12] : 2.9

New cases:
// CYP inhibition, CYP2D6 value for Cn1c(=O)[nH]c(=O)c2c1nc(S)n2CC(O)COc1ccc(Cl)cc1 (centres unmarked) [Compound 38] : −5.4

---

assay.overview: Liver microsomal stability, human
test.conditions: human liver microsomes, 30 min of incubation
Kindly state Mean Remaining Parent (with NADPH) for each of the entries shown.
Give bare numbers, in %.

// Mean Remaining Parent (with NADPH) value for Cc1cccc(NCc2ccc(O)c3ncccc23)c1C [Compound 12] : 1

// Mean Remaining Parent (with NADPH) value for Nc1ccc(N2CCOCC2)c2nonc12 [Compound 11] : 76

// Mean Remaining Parent (with NADPH) value for Cn1c(=O)[nH]c(=O)c2c1nc(S)n2CC(O)COc1ccc(Cl)cc1 (stereo not shown) [Compound 38] : 88

New cases:
// Mean Remaining Parent (with NADPH) value for COc1ccc(N2CCN(C(c3ccc(N(C)C)cc3)c3nnnn3C(C)(C)C)CC2)cc1 (stereo not shown) [Compound 31] : 12

---

system: CYP2C9 (Homo sapiens)
Sequence (P11712 whole entry): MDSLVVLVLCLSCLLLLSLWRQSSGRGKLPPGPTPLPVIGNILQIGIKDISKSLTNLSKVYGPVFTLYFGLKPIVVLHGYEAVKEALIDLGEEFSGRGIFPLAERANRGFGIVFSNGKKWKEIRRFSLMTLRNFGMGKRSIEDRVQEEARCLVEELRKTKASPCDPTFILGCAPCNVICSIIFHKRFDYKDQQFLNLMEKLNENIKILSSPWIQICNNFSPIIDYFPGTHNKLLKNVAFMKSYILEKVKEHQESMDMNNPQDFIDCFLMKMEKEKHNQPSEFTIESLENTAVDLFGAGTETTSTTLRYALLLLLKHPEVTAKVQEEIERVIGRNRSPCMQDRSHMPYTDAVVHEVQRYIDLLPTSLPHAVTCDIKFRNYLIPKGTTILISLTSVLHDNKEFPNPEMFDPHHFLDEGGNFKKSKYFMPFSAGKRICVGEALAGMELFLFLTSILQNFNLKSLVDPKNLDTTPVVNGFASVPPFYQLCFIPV
assay.overview: CYP inhibition screening, CYP2C9
Assay type: in vitro ADME
test.conditions: test concentration 3 μM
Kindly state CYP inhibition, CYP2C9 for each of the entries shown.
Record the result as a number with its unit.

Look over these answered cases.
// CYP inhibition, CYP2C9 value for CCN(CC)c1ccc(CN2CCc3nc(C)[nH]c(=O)c3C2)c(OC)c1 : 4.6%

// CYP inhibition, CYP2C9 value for Cc1cccc(NCc2ccc(O)c3ncccc23)c1C : 4.3%

// CYP inhibition, CYP2C9 value for Cn1c(=O)[nH]c(=O)c2c1nc(S)n2CC(O)COc1ccc(Cl)cc1 (centres unmarked) : 15.6%

// CYP inhibition, CYP2C9 value for Nc1ccc(N2CCOCC2)c2nonc12 : 4.3%

# evaluate next
// CYP inhibition, CYP2C9 value for COc1ccc(N2CCN(C(c3ccc(N(C)C)cc3)c3nnnn3C(C)(C)C)CC2)cc1 (centres unmarked) : 47.8%

---

Kindly state CYP inhibition, CYP1A2 for each of the entries shown.
system: CYP1A2 (Homo sapiens, UniProt P05177)
Sequence (P05177 whole entry): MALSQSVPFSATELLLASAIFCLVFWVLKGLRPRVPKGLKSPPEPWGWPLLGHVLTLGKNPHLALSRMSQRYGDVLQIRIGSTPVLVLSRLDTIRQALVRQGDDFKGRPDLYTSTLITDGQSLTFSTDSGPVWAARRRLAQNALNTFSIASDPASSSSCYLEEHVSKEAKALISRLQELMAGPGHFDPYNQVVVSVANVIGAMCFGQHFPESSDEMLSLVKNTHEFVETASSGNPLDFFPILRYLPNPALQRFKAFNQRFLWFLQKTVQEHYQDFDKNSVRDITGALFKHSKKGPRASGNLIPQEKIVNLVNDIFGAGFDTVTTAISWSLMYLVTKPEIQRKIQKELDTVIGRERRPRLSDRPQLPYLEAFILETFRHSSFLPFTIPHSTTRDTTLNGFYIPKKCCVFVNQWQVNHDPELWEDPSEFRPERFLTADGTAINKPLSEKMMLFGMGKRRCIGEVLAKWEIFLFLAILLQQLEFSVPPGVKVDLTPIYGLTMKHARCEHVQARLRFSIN
assay.overview: CYP inhibition screening, CYP1A2
Format: in vitro ADME
test.conditions: test concentration 3 μM
Answers are plain numbers, in %.

Look over these answered cases.
// CYP inhibition, CYP1A2 value for Cn1c(=O)[nH]c(=O)c2c1nc(S)n2CC(O)COc1ccc(Cl)cc1 (centres unmarked) [Compound 38] : −7.6

// CYP inhibition, CYP1A2 value for Nc1ccc(N2CCOCC2)c2nonc12 [Compound 11] : 13.1

// CYP inhibition, CYP1A2 value for CCN(CC)c1ccc(CN2CCc3nc(C)[nH]c(=O)c3C2)c(OC)c1 [Compound 64] : 23.7

// CYP inhibition, CYP1A2 value for COc1ccc(N2CCN(C(c3ccc(N(C)C)cc3)c3nnnn3C(C)(C)C)CC2)cc1 (centres unmarked) [Compound 31] : 13.5

# evaluate next
// CYP inhibition, CYP1A2 value for Cc1cccc(NCc2ccc(O)c3ncccc23)c1C [Compound 12] : 28.4

---

Test system: CYP3A
assay.overview: CYP inhibition screening, CYP3A-Testosterone
Type: in vitro ADME
test.conditions: test concentration 3 μM
Kindly state CYP inhibition, CYP3A-Testosterone for each of the entries shown.
Give bare numbers, in %.

Look over these answered cases.
// CYP inhibition, CYP3A-Testosterone value for Cc1cccc(NCc2ccc(O)c3ncccc23)c1C : 14.2

// CYP inhibition, CYP3A-Testosterone value for CCN(CC)c1ccc(CN2CCc3nc(C)[nH]c(=O)c3C2)c(OC)c1 : 1.5

// CYP inhibition, CYP3A-Testosterone value for COc1ccc(N2CCN(C(c3ccc(N(C)C)cc3)c3nnnn3C(C)(C)C)CC2)cc1 (centres unmarked) : 2.5

// CYP inhibition, CYP3A-Testosterone value for Cn1c(=O)[nH]c(=O)c2c1nc(S)n2CC(O)COc1ccc(Cl)cc1 (centres unmarked) : −6.0

# evaluate next
// CYP inhibition, CYP3A-Testosterone value for Nc1ccc(N2CCOCC2)c2nonc12 : 4.1

---

assay.overview: Liver microsomal stability, mouse
test.conditions: mouse liver microsomes
readout.type: Mean Remaining Parent (with NADPH) (%)
One number for each entry, in %.

Look over these answered cases.
// Mean Remaining Parent (with NADPH) value for Cc1cccc(NCc2ccc(O)c3ncccc23)c1C : 1

// Mean Remaining Parent (with NADPH) value for Nc1ccc(N2CCOCC2)c2nonc12 : 20

Batch: Mean Remaining Parent (with NADPH) for all items listed.
1. COc1ccc(N2CCN(C(c3ccc(N(C)C)cc3)c3nnnn3C(C)(C)C)CC2)cc1 (stereo not shown)
2. Cn1c(=O)[nH]c(=O)c2c1nc(S)n2CC(O)COc1ccc(Cl)cc1 (stereo not shown)

16
98

---

Test system: Caco-2 monolayer
assay.overview: Caco-2 monolayer permeability screen
Type: in vitro ADME
test.conditions: Caco-2
readout.type: RE
Answers are plain numbers.

Look over these answered cases.
Hey, Caco-2 monolayer data for COc1ccc(N2CCN(C(c3ccc(N(C)C)cc3)c3nnnn3C(C)(C)C)CC2)cc1 (stereo not shown) [Compound 31] : RE came out at 0.9

Hey, Caco-2 monolayer data for Nc1ccc(N2CCOCC2)c2nonc12 [Compound 11] : RE came out at 0.2

Batch: RE for all items listed.
1. Cc1cccc(NCc2ccc(O)c3ncccc23)c1C [Compound 12]
2. Cn1c(=O)[nH]c(=O)c2c1nc(S)n2CC(O)COc1ccc(Cl)cc1 (stereo not shown) [Compound 38]

1: 2.7; 2: 18.2

---

Kindly state CYP inhibition, CYP2C19 for each of the entries shown.
system: CYP2C19 (Homo sapiens)
Sequence (P33261 whole entry): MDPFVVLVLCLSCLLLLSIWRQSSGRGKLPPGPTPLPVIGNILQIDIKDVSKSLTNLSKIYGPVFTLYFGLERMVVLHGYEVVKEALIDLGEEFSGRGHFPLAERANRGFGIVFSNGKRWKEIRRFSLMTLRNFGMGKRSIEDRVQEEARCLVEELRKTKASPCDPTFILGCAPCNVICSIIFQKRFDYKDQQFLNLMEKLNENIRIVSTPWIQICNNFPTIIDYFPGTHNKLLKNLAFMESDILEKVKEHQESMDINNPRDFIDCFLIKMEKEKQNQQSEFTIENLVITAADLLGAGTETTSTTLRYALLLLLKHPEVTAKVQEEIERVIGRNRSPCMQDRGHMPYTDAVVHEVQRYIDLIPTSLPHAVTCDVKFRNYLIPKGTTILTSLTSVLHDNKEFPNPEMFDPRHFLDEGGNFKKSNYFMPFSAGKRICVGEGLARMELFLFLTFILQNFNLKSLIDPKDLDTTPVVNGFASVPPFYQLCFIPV
assay.overview: CYP inhibition screening, CYP2C19
Type: in vitro ADME
test.conditions: test concentration 3 μM

// CYP inhibition, CYP2C19 value for Cn1c(=O)[nH]c(=O)c2c1nc(S)n2CC(O)COc1ccc(Cl)cc1 (centres unmarked) [Compound 38] : −12.0%

// CYP inhibition, CYP2C19 value for CCN(CC)c1ccc(CN2CCc3nc(C)[nH]c(=O)c3C2)c(OC)c1 [Compound 64] : 31.6%

// CYP inhibition, CYP2C19 value for COc1ccc(N2CCN(C(c3ccc(N(C)C)cc3)c3nnnn3C(C)(C)C)CC2)cc1 (centres unmarked) [Compound 31] : 37.7%

// CYP inhibition, CYP2C19 value for Nc1ccc(N2CCOCC2)c2nonc12 [Compound 11] : 4.4%

New cases:
// CYP inhibition, CYP2C19 value for Cc1cccc(NCc2ccc(O)c3ncccc23)c1C [Compound 12] : 13.4%

---

Test system: Caco-2 monolayer
assay.overview: Caco-2 monolayer permeability screen
Assay type: in vitro ADME
test.conditions: Caco-2
readout.type: A -> B Papp

Look over these answered cases.
// A -> B Papp value for Cc1cccc(NCc2ccc(O)c3ncccc23)c1C [Compound 12] : 1.4 10^−6 cm · s^−1

// A -> B Papp value for Nc1ccc(N2CCOCC2)c2nonc12 [Compound 11] : 35.0 10^−6 cm · s^−1

// A -> B Papp value for CCN(CC)c1ccc(CN2CCc3nc(C)[nH]c(=O)c3C2)c(OC)c1 [Compound 64] : <LLOQ

// A -> B Papp value for COc1ccc(N2CCN(C(c3ccc(N(C)C)cc3)c3nnnn3C(C)(C)C)CC2)cc1 (centres unmarked) [Compound 31] : 19.3 10^−6 cm · s^−1

# evaluate next
// A -> B Papp value for Cn1c(=O)[nH]c(=O)c2c1nc(S)n2CC(O)COc1ccc(Cl)cc1 (centres unmarked) [Compound 38] : 1.1 10^−6 cm · s^−1

---

assay.overview: Liver microsomal stability, human
test.conditions: human liver microsomes
readout.type: Mean Remaining Parent (NADPH-free)

Look over these answered cases.
// Mean Remaining Parent (NADPH-free) value for COc1ccc(N2CCN(C(c3ccc(N(C)C)cc3)c3nnnn3C(C)(C)C)CC2)cc1 (stereo not shown) [Compound 31] : 75%

// Mean Remaining Parent (NADPH-free) value for Cc1cccc(NCc2ccc(O)c3ncccc23)c1C [Compound 12] : 1%

// Mean Remaining Parent (NADPH-free) value for Nc1ccc(N2CCOCC2)c2nonc12 [Compound 11] : 93%

# evaluate next
// Mean Remaining Parent (NADPH-free) value for Cn1c(=O)[nH]c(=O)c2c1nc(S)n2CC(O)COc1ccc(Cl)cc1 (stereo not shown) [Compound 38] : 107%
